Attribution: paper PMC10786891

Target: T1, EsCas13d, nuclease-dead (Eubacterium siraeum, UniProt B0MS50, R295A;H300A;R849A;H854A)
T1 sequence: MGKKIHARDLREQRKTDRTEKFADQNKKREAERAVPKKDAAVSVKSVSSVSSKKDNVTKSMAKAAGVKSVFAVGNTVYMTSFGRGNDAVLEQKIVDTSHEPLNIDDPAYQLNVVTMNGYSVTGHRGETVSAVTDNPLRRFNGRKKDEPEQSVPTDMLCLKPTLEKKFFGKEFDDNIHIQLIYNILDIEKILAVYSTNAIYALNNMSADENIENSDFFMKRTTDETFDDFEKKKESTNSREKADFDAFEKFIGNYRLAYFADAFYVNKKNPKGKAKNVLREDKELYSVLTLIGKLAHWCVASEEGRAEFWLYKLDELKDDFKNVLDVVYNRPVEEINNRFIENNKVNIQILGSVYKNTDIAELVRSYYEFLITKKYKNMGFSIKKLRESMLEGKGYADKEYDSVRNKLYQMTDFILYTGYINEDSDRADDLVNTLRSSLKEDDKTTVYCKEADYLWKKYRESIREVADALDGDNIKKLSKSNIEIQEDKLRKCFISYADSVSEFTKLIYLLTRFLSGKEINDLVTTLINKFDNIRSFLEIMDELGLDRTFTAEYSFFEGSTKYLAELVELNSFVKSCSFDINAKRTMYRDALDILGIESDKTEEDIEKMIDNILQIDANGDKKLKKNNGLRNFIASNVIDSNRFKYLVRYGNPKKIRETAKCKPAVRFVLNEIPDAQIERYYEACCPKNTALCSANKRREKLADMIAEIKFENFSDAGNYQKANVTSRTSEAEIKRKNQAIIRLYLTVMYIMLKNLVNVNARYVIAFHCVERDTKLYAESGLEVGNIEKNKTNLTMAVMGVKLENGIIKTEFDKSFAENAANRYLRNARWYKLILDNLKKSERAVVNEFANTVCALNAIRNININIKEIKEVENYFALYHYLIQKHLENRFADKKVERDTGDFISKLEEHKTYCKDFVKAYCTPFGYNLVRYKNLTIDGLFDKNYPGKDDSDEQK
Assay: crRNA (strand 1, pre-loaded); Mg2+; 40 mM Tris-HCl pH 7.5, 150 mM NaCl, 6 mM MgCl2, 1 mM DTT, 0.1% Tween-20, 0.2 mg/ml BSA; 25 C; 10 min per concentration, then washed
Conditions: tags: His6-TwinStrep-SUMO cleaved; N-terminal SNAP kept (SNAP-Surface 488); label: 3' end held by stalled T7 RNA polymerase

binder	Kd [nM]
target 2 MT 5'PFS ACC 3'PFS UUU (mixed) RNA 1: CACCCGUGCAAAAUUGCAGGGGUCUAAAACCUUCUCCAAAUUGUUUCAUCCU RNA 2: GGGAAUGGAUCCACAUCUACGAAUUCACCAGGAUGAAACAAUUUGGAGAAGUUUAGAUCGGAAGAGCACACGU	7.8
